experimental-system: T1, DDE
T1 chain 1: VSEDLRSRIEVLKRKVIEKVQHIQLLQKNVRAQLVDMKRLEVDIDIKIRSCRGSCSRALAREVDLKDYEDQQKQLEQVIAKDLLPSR
T1 chain 2: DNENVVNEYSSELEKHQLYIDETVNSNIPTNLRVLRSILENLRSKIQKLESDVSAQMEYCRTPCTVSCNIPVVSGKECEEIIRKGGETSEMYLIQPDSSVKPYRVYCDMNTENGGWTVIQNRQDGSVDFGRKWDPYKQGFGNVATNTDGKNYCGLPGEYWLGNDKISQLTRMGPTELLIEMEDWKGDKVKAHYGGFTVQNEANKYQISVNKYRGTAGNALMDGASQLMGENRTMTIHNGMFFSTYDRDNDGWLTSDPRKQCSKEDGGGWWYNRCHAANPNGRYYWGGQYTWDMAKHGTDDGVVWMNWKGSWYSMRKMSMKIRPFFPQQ
T1 chain 3: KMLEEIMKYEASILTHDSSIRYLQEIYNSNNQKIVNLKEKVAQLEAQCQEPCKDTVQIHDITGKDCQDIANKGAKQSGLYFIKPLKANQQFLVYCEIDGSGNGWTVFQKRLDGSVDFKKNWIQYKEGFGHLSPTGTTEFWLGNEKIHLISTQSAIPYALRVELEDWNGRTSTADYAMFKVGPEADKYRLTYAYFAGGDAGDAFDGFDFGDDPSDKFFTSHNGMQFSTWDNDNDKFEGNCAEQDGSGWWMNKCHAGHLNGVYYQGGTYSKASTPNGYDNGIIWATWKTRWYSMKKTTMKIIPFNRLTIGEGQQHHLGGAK
T1 chain 4: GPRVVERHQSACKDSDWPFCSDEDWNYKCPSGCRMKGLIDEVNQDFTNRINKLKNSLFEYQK
T1 chain 5: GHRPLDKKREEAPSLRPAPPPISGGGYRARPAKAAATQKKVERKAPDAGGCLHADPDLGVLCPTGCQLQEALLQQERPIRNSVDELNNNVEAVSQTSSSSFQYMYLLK
T1 chain 6: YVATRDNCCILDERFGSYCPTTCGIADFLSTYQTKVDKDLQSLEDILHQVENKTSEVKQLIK
test: competition fluorescence polarization: unlabeled peptide against Seq000-CF5 tracer on DDE; n = 2
Bridge positions count the residues as written; N and C are the ends. Square brackets hold non-standard residues; d marks the D form. Hyp = O=C(O)[C@@H]1C[C@@H](O)CN1; AEEA = NCCOCCOCC(=O)O
Below, each of the binders is paired with its reported Rel IC50 value.

| binder | Rel IC50 |
| --- | --- |
| Ac-KGKGKGWQPCPWESWTFCWDPGGGK-NH2 (disulfide 10-18) [Seq026-P] | 0.595 ratio to the reference peptide |
| Ac-KKGWQPCPWESWTFCWDPGGGK-NH2 (disulfide 7-15) [Seq025-P] | 0.357 ratio to the reference peptide |
| H-RWQPCPWESWTFCWDPGGGK-NH2 (disulfide 5-13) [Seq023-P] | 0.47 ratio to the reference peptide |
| Ac-SGSG[AEEA]WQPCPWESWTFCWDPGGGK-NH2 (disulfide 9-17) [Seq017-P] | 0.714 ratio to the reference peptide |
| Ac-GGRGWQPCPWESWTFCWDPGGGK-NH2 (disulfide 8-16) [Seq015-P] | 0.37 ratio to the reference peptide |
| Ac-WQPC[Hyp]WESWTFCWDPGGGK-NH2 (disulfide 4-12, also called Ac-WQPC*-Hypt4-WESWTFC*WDPGGGK-NH2) [Seq032-P] | 0.55 ratio to the reference peptide |
